Measured On: Pdr3 (UniProt P33200)
Sequence: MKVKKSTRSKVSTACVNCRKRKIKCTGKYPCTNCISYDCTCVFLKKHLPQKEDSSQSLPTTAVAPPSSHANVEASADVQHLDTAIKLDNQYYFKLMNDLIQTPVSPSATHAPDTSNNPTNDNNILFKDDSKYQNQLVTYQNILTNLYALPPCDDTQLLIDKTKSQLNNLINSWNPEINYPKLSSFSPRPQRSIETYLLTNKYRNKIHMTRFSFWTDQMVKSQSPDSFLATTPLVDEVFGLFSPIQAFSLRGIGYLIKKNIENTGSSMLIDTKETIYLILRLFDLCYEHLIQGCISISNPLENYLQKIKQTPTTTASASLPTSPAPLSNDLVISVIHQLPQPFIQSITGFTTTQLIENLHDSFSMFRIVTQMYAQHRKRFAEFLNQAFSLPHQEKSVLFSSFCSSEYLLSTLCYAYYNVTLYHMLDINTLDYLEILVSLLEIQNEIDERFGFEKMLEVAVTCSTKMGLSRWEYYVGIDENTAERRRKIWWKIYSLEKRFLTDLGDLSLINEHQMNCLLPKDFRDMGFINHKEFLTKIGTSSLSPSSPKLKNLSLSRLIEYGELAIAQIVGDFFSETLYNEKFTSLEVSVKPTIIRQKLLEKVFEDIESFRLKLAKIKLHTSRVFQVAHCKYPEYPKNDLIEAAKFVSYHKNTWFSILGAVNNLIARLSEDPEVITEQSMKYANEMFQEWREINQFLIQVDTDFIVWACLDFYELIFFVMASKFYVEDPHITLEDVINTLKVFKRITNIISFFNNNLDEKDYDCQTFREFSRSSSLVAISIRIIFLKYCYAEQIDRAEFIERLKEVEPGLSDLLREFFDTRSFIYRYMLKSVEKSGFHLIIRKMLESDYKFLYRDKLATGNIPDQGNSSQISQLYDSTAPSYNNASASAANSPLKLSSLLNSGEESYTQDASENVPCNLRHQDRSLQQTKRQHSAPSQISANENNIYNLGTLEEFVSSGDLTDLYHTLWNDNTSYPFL
Assay Remarks: PBM E-score (8-mer binding enrichment) (E-score (-0.5 to 0.5)); higher = stronger / more preferred TF binding
Experimental Context: protein concentration: 200 nM; construct: GST-full length
Whole data set: some 33,000 sequences, median “E-score (-0.5 to 0.5)” near -0.035, cut for the highest 2% near 0.35. Shown is part of a subset that was picked to be rich in the highest values.
Measure Name: PBM E-score
Reply with just the number.

Input: Could you tell me which PBM E-score is on file for `CACGGATG` ?
Output: 0.284

Input: Next entry: `AGACAGTC`
Output: -0.0923

Input: Next entry: `AACGGATG`
Output: 0.283

Input: Next entry: `CGCTGGAC`
Output: -0.075

Input: Next entry: `AGGTCTAA`
Output: -0.0213

Input: Next entry: `CCTTCCTA`
Output: -0.401

Input: Next entry: `ATGCCGGC`
Output: 0.341

Input: Next entry: `ACACAAGC`
Output: 0.0653

Input: Next entry: `AATCCGCT`
Output: 0.16

Input: Next entry: `CCCGCGTC`
Output: 0.236

Input: Next entry: `ACGCAAGT`
Output: -0.255

Input: Next entry: `CATCCGCC`
Output: 0.345

Input: Next entry: `AGTCCGCC`
Output: 0.324

Input: Next entry: `CTGTTCTC`
Output: -0.0802

Input: Next entry: `CAGTTACC`
Output: -0.0312

Input: Next entry: `TACGGATA`
Output: 0.224

Input: Next entry: `GCGGCCGC`
Output: 0.35

Input: Next entry: `GCCGCGGC`
Output: 0.484

Input: Next entry: `ATGCCGGG`
Output: 0.245

Input: Next entry: `TCCGCAGA`
Output: 0.258

Input: Next entry: `AACGGATC`
Output: 0.367

Input: Next entry: `CGCGAAAC`
Output: -0.00744

Input: Next entry: `CTGCCGGA`
Output: 0.32

Input: Next entry: `GATCCGTA`
Output: 0.336

Input: Next entry: `AGTTGCCG`
Output: 0.196

Input: Next entry: `CCAACTGC`
Output: 0.0661

Input: Next entry: `AGAACTCA`
Output: 0.00923

Input: Next entry: `CCCGCGAC`
Output: 0.175

Input: Next entry: `TACCGATA`
Output: 0.0617

Input: Next entry: `GACGGATA`
Output: 0.251

Input: Next entry: `GTGCCGGA`
Output: 0.369

Input: Next entry: `CTTCGCGC`
Output: 0.274

Input: Next entry: `TATCCTGA`
Output: -0.107

Input: Next entry: `GCTGTACC`
Output: -0.00444

Input: Next entry: `CACGGATA`
Output: 0.373

Input: Next entry: `TCTCGTCA`
Output: -0.0279

Input: Next entry: `CCGAGAAG`
Output: 0.183

Input: Next entry: `CGGTGTAC`
Output: -0.0705

Input: Next entry: `CCAATAGG`
Output: -0.154

Input: Next entry: `TATCCGGA`
Output: 0.446

Input: Next entry: `GATCCGCA`
Output: 0.319

Input: Next entry: `AATCCGCG`
Output: 0.388

Input: Next entry: `ATACAGCG`
Output: -0.116

Input: Next entry: `GCTCCGAA`
Output: 0.361

Input: Next entry: `CTTCAACC`
Output: 0.00827

Input: Next entry: `CTGCGGGC`
Output: 0.218

###

Measured On: Pdr3 (UniProt P33200)
Sequence: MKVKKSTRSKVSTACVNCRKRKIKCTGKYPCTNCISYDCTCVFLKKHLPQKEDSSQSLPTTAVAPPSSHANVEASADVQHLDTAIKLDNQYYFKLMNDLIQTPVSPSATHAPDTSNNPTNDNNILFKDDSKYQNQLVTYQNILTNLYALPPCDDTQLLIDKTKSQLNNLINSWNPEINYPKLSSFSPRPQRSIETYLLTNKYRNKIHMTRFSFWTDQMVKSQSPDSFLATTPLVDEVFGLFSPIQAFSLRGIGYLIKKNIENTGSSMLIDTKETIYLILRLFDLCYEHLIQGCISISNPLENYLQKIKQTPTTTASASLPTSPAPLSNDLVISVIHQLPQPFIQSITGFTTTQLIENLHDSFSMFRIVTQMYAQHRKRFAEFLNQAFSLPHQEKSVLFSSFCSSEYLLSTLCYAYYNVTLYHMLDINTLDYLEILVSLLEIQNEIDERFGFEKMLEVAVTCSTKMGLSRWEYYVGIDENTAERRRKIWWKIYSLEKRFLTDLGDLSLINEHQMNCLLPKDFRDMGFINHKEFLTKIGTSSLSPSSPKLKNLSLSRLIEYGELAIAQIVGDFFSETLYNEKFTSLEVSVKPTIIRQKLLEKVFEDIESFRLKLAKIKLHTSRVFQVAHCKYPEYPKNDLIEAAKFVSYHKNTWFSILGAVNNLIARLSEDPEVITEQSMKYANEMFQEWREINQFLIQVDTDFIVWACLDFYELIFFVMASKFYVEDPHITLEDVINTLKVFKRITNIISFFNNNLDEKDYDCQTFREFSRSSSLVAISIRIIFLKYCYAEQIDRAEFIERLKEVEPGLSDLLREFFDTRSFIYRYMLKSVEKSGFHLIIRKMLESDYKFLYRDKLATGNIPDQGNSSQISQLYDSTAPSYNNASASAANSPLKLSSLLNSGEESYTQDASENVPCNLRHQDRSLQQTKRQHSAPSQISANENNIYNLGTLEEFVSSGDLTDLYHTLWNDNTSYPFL
Assay Remarks: PBM E-score (8-mer binding enrichment) (E-score (-0.5 to 0.5)); higher = stronger / more preferred TF binding
Experimental Context: protein concentration: 200 nM; construct: GST-full length
In all, about 33,000 sequences were measured (“E-score (-0.5 to 0.5)”: median about -0.035, highest 2% from about 0.35 on). For the sample, the highest values were picked, then their nearest neighbours and some sequences at random.
Would you mind classing the entries by PBM E-score? Ranges: group A: < -0.03; group B: ≥ -0.03 and < 0.1; group C: ≥ 0.1

Input: Input `CGGCGAAG` ; output its category
Output: group C

Input: Next entry: `ACGGGCCA`
Output: group C

Input: Next entry: `AACTTCCT`
Output: group A

Input: Next entry: `ACCTTCCG`
Output: group C

Input: Next entry: `CTATGGCC`
Output: group A

Input: Next entry: `CCCTTCCC`
Output: group B

Input: Next entry: `ACCTTCCC`
Output: group B

Input: Next entry: `CGCTATCC`
Output: group C

Input: Next entry: `ATCTTCCA`
Output: group A

Input: Next entry: `GTAGCGTA`
Output: group B
